Reference source: a melting point compilation (Tetko et al.; mined from patent text by program, amines drawn as free bases though some values may be those of a salt)

melting point listing for selected compounds.

[
  {
    "smiles.repr": "Oc1ccc(-c2nnc(CSCCOc3ccccc3)n2Cc2ccccc2)cc1",
    "melting point": "64 to 66 °C"
  },
  {
    "smiles.repr": "Cc1nc2cc(C(F)(F)F)ccc2n1N",
    "melting point": "190 to 192 °C"
  },
  {
    "smiles.repr": "O=C(CCCCBr)NC(=O)C1CC1",
    "melting point": "114 to 115 °C"
  },
  {
    "smiles.repr": "Nc1ccc(S(=O)(=O)Nc2ccn(CC3CC3)c(=O)n2)cc1",
    "melting point": "87 to 95 °C"
  },
  {
    "smiles.repr": "ClCCCCOc1ccc(Br)c(CCOCc2ccccc2)c1",
    "melting point": "65 to 66 °C"
  },
  {
    "smiles.repr": "CCOC(=O)n1nc(S(=O)(=O)Nc2c(Cl)cccc2Cl)nc1NC",
    "melting point": "202 to 203 °C"
  },
  {
    "smiles.repr": "COc1cc2c(c3c1OC(C)(C)C3)C(c1cccc(NC(=O)c3ccc(Cl)nc3Cl)c1)=NC(C)(C)C2",
    "melting point": "130 to 132 °C"
  },
  {
    "smiles.repr": "O=CNc1nc(CSc2ccc([N+](=O)[O-])cc2)cs1",
    "melting point": "158 to 160 °C"
  },
  {
    "smiles.repr": "CCCc1c2nc(C(=O)OC)cc(N(C)S(=O)(=O)c3ccc(C)cc3)c2cc2c(=O)cc(C(=O)OCC)oc12",
    "melting point": "173 to 174 °C"
  },
  {
    "smiles.repr": "Cc1c(-c2ccccc2)n(Cc2ccccc2)c2ccc(Br)cc12",
    "melting point": "113 to 116 °C"
  }
]
